Numbers sourced from the supplement of paper PMC6757056.

B1: library; a variant is named by its letters at N, in order (parent)
chain: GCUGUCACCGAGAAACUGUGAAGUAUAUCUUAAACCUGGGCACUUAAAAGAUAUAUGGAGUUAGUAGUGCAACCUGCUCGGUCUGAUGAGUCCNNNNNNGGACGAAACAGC

Variants of: B1
Assay: normalized RNA/DNA level without ligand (relative to sTRSVctl = 100) (log10 (% of sTRSVctl)); HEK293T; ligand: cyclic di-GMP (c-di-GMP-II aptamer); higher = less ribozyme self-cleavage, higher mRNA level
Details: reporter: mCherry (pCS4076), ligand present: no
Experimental endpoint: normalized RNA/DNA level without ligand (log10)
Respond numerically, and do not add a unit to the figure.

AUCUCC    1.81
AUUCCG    1.75
CGGUAG    1.73
CCUGAC    1.65
UUAACC    1.78

The variant listed as UCUCGA has a reported normalized RNA/DNA level without ligand (log10) of 1.8

The variant listed as AGAGCU has a reported normalized RNA/DNA level without ligand (log10) of 1.71

The variant listed as UGAGUA has a reported normalized RNA/DNA level without ligand (log10) of 1.73

The variant listed as GAACGU has a reported normalized RNA/DNA level without ligand (log10) of 1.54

The variant listed as UUGGAA has a reported normalized RNA/DNA level without ligand (log10) of 1.61

The variant listed as GGCACA has a reported normalized RNA/DNA level without ligand (log10) of 1.69

The variant listed as AUAAAG has a reported normalized RNA/DNA level without ligand (log10) of 1.56

The variant listed as AAACGG has a reported normalized RNA/DNA level without ligand (log10) of 1.5

The variant listed as GAUAAG has a reported normalized RNA/DNA level without ligand (log10) of 1.54

The variant listed as AGCAUC has a reported normalized RNA/DNA level without ligand (log10) of 1.8

The variant listed as AACCCU has a reported normalized RNA/DNA level without ligand (log10) of 1.69
